- ASSAY_SYSTEM: Tyrosine-protein kinase ABL1 (Homo sapiens)
- MEASUREMENT_PROTOCOL: Inhibition of Abl (unknown origin) expressed in Sf9 cells assessed as residual activity using GGEAIYAAPFKK peptide as substrate in presence of ATP and Ci(gamma33-P)ATP at 1 uM measured by microplate reader
MEASURED_PROPERTY: Activity (%)
// return numeric value only (unit: %, not printed)

Param item = `CC(C)(C)c1ccc(C(=O)Nc2cccc(-c3cc4[nH]cnc4c(Nc4ccc(C(=O)N5CCOCC5)cc4)n3)c2)cc1` ; retrieve measured Activity.
95.9

If you can, please state the reported Activity value of `Cc1c(NC(=O)c2cccnc2)cccc1-c1cc2[nH]cnc2c(Nc2ccc(C(=O)N3CCOCC3)cc2)n1` .
69.1

Which measured Activity value corresponds to `Cc1c(NC(=O)c2ccccc2)cccc1-c1cc2[nH]cnc2c(Nc2ccc(C(=O)N3CCOCC3)cc2)n1` ?
68.2

Activity lookup needed for `COc1ccc(Cn2cnc3c(Nc4ccc(C(=O)N5CCOCC5)cc4)nc(-c4cccc(NC(=O)c5ccc(C(C)(C)C)cc5)c4C)cc32)cc1` , thanks.
95.1

Item `Cc1c(NC(=O)c2ccccn2)cccc1-c1cc2[nH]cnc2c(Nc2ccc(C(=O)N3CCOCC3)cc2)n1` has what recorded Activity?
56.8
